tested on: Puccinia recondita f. sp. tritici; assay: Test I: wheat leaf rust on wheat seedlings, sprayed the day before inoculation, visual disease rating; format: in vivo; details: 200 ppm; 100 = 100% disease control, 0 = no control
metric_name: Test I disease control rating

Suppose we examine the compound COc1cc(F)c(-c2c(Cl)nc(Cl)n2Cc2ccc(C)cc2)c(F)c1 [compound 291] ; what Test I disease control rating value has been reported?
98%

Now consider COc1cc(F)c(-c2c(Cl)nc(I)n2-c2ccc(Cl)cc2)c(F)c1 [compound 245] and answer again.
95%

// same read-out, input: Cc1ccc(-n2c(C)nc(Cl)c2-c2c(F)cccc2Cl)cc1 [compound 190]
100%

Same lookup for N#Cc1cc(F)c(-c2c(Cl)nc(Br)n2-c2ccc(Cl)cc2)c(F)c1 [compound 201] , please.
96%

Entry to check: COc1ccc(F)c(-c2c(Cl)nc(Cl)n2Cc2ccc(Cl)cc2)c1F [compound 288]
96%

Further, for Cc1ccc(-n2cnc(Cl)c2-c2c(F)cccc2Cl)cc1 [compound 181] ?
98%

For COc1cc(F)c(-c2c(Cl)nc(Cl)n2-c2ccc(Cl)c(F)c2)c(F)c1 [compound 240] then?
100%

Check COc1cc(F)c(-c2c(Cl)nc(C)n2Cc2ccc(C)cc2)c(F)c1 [compound 296] too.
99%

Same lookup for COc1ccc(F)c(-c2c(N(C)C)ncn2Cc2ccc(Cl)cc2)c1F [compound 271] , please.
83%

Another compound to look at: Fc1ccc(-c2c(Cl)nc(Br)n2-c2ccc(Cl)c(F)c2)c(Cl)c1 [compound 202]
98%

Consider next the compound COc1cc(F)c(-c2c(N(C)C)ncn2Cc2ccc(C)cc2)c(F)c1 [compound 275] in the same way.
74%

Also check Clc1ccc(-c2c(Cl)ncn2Cc2cccc(Cl)c2)cc1 [compound 272]
55%

Please give the result for Cc1ccc(-n2c(C)nc(Cl)c2-c2c(F)cccc2F)cc1F [compound 175] too.
100%

Subsequent entry: Fc1cc(-n2c(Cl)nc(Cl)c2-c2c(F)ccc(F)c2Cl)ccc1Cl [compound 220]
99%

For CCn1nc(Br)c(-c2c(F)cccc2F)c1-c1ccc(Cl)cc1 [compound 165] then?
27%

Would you kindly repeat that for Cn1nc(Br)c(-c2c(F)cc(F)cc2F)c1-c1ccc(Cl)cc1 [compound 166] ?
91%

Then this compound: Cc1ccc(-n2c(Br)nc(Cl)c2-c2c(F)ccc(F)c2F)cc1C [compound 224]
80%

What do you have for Fc1cc(-n2c(Br)nc(Cl)c2-c2c(F)cccc2F)ccc1Cl [compound 223] ?
99%

How about Cc1ncn(-c2ccc(Cl)c(F)c2)c1-c1cccnc1 [compound 252] ?
0%

----------
system: Septoria tritici; assay: Test G: wheat leaf blotch on wheat seedlings, sprayed the day before inoculation, visual disease rating; assay type: in vivo; details: 200 ppm; 100 = 100% disease control, 0 = no control relative to controls
metric_name: Test G disease control rating (%)
Answer with a number only, understood to be in %.

# Test G disease control rating lookup, item COc1cc(F)c(-c2c(Cl)ncn2-c2ccc(OC(F)F)cc2)c(F)c1
96

Can you handle COc1ccc(F)c(-c2c(Cl)nc(Br)n2-c2ccc(F)cc2)c1F next?
93

Another compound: Cc1ncn(-c2ccc(Cl)c(F)c2)c1-c1scnc1Cl
78

Proceed to N#Cc1ccc(F)c(-c2c(Cl)nc(Cl)n2-c2cccc(F)c2)c1F
99

Repeat for the following compound: CCc1cccc(-n2c(Cl)nc(Cl)c2-c2c(F)ccc(OC)c2F)c1
100

Another compound to check: Fc1cccc(-n2c(Br)nc(Cl)c2-c2c(F)ccc(F)c2F)c1
92

COc1cc(F)c(-c2c(Br)nc(Cl)n2-c2ccc(OC)nc2)c(F)c1 ?
98

Try the compound Fc1cc(F)c(-c2c(Cl)ncn2-c2ccc(OC(F)F)cc2)c(F)c1
100

Try this compound next: COc1ccc(F)c(-c2c(Cl)nc(Cl)n2-c2cccc(OC(F)F)c2)c1F
94
